# assay.details: Study-1 Part-B multiple ascending dose pharmacokinetics (plasma and urine)
# Type: in vivo, human
# recorded.conditions: human, plasma, oral, 15 mg, Study-1 Part-B, 15 mg, Day 14; median (range); read-out: tmax
quantity: Tmax (h)
The figure you give is taken to be in h; do not add the unit.

Exam item: Can you look up the measured Tmax of [O-][n+]1cccc(-c2nc3c(Cl)cccc3cc2[C@@H](Nc2ncnc3cccnc23)C(F)(F)F)c1 for me?
Marked response: 3

---

# assay.details: Study-1 Part-B multiple ascending dose pharmacokinetics (plasma and urine)
# Assay type: in vivo, human
# recorded.conditions: human, urine and plasma, oral, 15 mg, Study-1 Part-B, 15 mg, Day 1; geo mean (GeoCV%)
quantity: CL renal (mL/min)
The figure you give is taken to be in mL/min; do not add the unit.

Exam item: Can you look up the measured CL renal of [O-][n+]1cccc(-c2nc3c(Cl)cccc3cc2[C@@H](Nc2ncnc3cccnc23)C(F)(F)F)c1 [Seletalisib, seletalisib] for me?
Marked response: 3.43

---

# assay.details: Study-1 Part-B multiple ascending dose pharmacokinetics (plasma and urine)
# Assay type: in vivo, human
# recorded.conditions: human, plasma, oral, 8 mg, Study-1 Part-B, 8 mg, Day 14; median (range); read-out: tmax
quantity: Tmax (h)
The figure you give is taken to be in h; do not add the unit.

Exam item: Can you look up the measured Tmax of [O-][n+]1cccc(-c2nc3c(Cl)cccc3cc2[C@@H](Nc2ncnc3cccnc23)C(F)(F)F)c1 for me?
Marked response: 3.5

---

# assay.details: Study-1 Part-A single ascending dose pharmacokinetics (plasma and urine)
# Type: in vivo, human
# recorded.conditions: human, plasma, oral, 1 mg, Study-1 Part-A, single dose 1 mg fasted; geo mean (GeoCV%)
quantity: AUC(0-t) (ng·h/mL)
The figure you give is taken to be in ng·h/mL; do not add the unit.

Exam item: Can you look up the measured AUC(0-t) of [O-][n+]1cccc(-c2nc3c(Cl)cccc3cc2[C@@H](Nc2ncnc3cccnc23)C(F)(F)F)c1 for me?
Marked response: 473

---

# assay.details: Study-2 single-dose pharmacokinetics (plasma)
# Assay type: in vivo, human
# recorded.conditions: human, plasma, oral; Study-2, single dose, range across groups; read-out: median tmax
# Description: These were phase I, randomised, double-blind, placebo-controlled studies designed to evaluate the safety, tolerability, PK and PD profiles of seletalisib following oral administration of single ascending doses and multiple ascending doses. […] Plasma concentrations of seletalisib were measured by high-performance liquid chromatography with tandem mass spectrometry (see Online Resource S1 for further details). […]
quantity: Tmax

Exam item: Can you look up the measured Tmax of [O-][n+]1cccc(-c2nc3c(Cl)cccc3cc2[C@@H](Nc2ncnc3cccnc23)C(F)(F)F)c1 [Seletalisib, seletalisib] for me?
Marked response: 3 to 4 h

---

# assay.details: Study-1 Part-A single ascending dose pharmacokinetics (plasma and urine)
# Format: in vivo, human
# recorded.conditions: human, plasma, oral, 15 mg, Study-1 Part-A, single dose 15 mg fasted; geo mean (GeoCV%); read-out: t1/2 (converted)
quantity: half-life (min)
The figure you give is taken to be in min; do not add the unit.

Exam item: Can you look up the measured half-life of [O-][n+]1cccc(-c2nc3c(Cl)cccc3cc2[C@@H](Nc2ncnc3cccnc23)C(F)(F)F)c1 for me?
Marked response: 1270

---

# assay.details: Study-1 Part-A single ascending dose pharmacokinetics (plasma and urine)
# Format: in vivo, human
# recorded.conditions: human, urine and plasma, oral, 15 mg, Study-1 Part-A, single dose 15 mg fasted; geo mean (GeoCV%)
quantity: CL renal (mL/min)
The figure you give is taken to be in mL/min; do not add the unit.

Exam item: Can you look up the measured CL renal of [O-][n+]1cccc(-c2nc3c(Cl)cccc3cc2[C@@H](Nc2ncnc3cccnc23)C(F)(F)F)c1 for me?
Marked response: 1.48

---

# assay.details: Study-1 Part-A single ascending dose pharmacokinetics (plasma and urine)
# Format: in vivo, human
# recorded.conditions: human, plasma, oral, 10 mg, Study-1 Part-A, single dose 10 mg fasted; geo mean (GeoCV%)
# Procedure: These were phase I, randomised, double-blind, placebo-controlled studies designed to evaluate the safety, tolerability, PK and PD profiles of seletalisib following oral administration of single ascending doses and multiple ascending doses. […] Plasma concentrations of seletalisib were measured by high-performance liquid chromatography with tandem mass spectrometry (see Online Resource S1 for further details). […]
quantity: AUC
Include the unit after the number when you answer.

Exam item: Can you look up the measured AUC of [O-][n+]1cccc(-c2nc3c(Cl)cccc3cc2[C@@H](Nc2ncnc3cccnc23)C(F)(F)F)c1 [Seletalisib, seletalisib] for me?
Marked response: 5.17 µg·h/mL

---

# assay.details: Study-1 Part-A single ascending dose pharmacokinetics (plasma and urine)
# Assay type: in vivo, human
# recorded.conditions: human, plasma, oral, 1 mg, Study-1 Part-A, single dose 1 mg fasted; geo mean (GeoCV%)
quantity: AUC (µg·h/mL)
The figure you give is taken to be in µg·h/mL; do not add the unit.

Exam item: Can you look up the measured AUC of [O-][n+]1cccc(-c2nc3c(Cl)cccc3cc2[C@@H](Nc2ncnc3cccnc23)C(F)(F)F)c1 for me?
Marked response: 0.518

---

# assay.details: Study-2 multiple-dose day 14 pharmacokinetics (plasma)
# Format: in vivo, human
# recorded.conditions: human, plasma, oral; Study-2, 90 mg QD, Day 14; median (range); read-out: tmax
quantity: Tmax (h)
The figure you give is taken to be in h; do not add the unit.

Exam item: Can you look up the measured Tmax of [O-][n+]1cccc(-c2nc3c(Cl)cccc3cc2[C@@H](Nc2ncnc3cccnc23)C(F)(F)F)c1 for me?
Marked response: 4

---

# assay.details: Study-1 Part-A single ascending dose pharmacokinetics (plasma and urine)
# Format: in vivo, human
# recorded.conditions: human, urine and plasma, oral, 1 mg, Study-1 Part-A, single dose 1 mg fasted; geo mean (GeoCV%)
quantity: CL renal (mL/min)
The figure you give is taken to be in mL/min; do not add the unit.

Exam item: Can you look up the measured CL renal of [O-][n+]1cccc(-c2nc3c(Cl)cccc3cc2[C@@H](Nc2ncnc3cccnc23)C(F)(F)F)c1 for me?
Marked response: 1.87

---

# assay.details: Study-2 single-dose pharmacokinetics (plasma)
# Assay type: in vivo, human
# recorded.conditions: human, plasma, oral; Study-2 single dose, 30 mg QD cohort; geo mean (GeoCV%)
quantity: MRT (h)
The figure you give is taken to be in h; do not add the unit.

Exam item: Can you look up the measured MRT of [O-][n+]1cccc(-c2nc3c(Cl)cccc3cc2[C@@H](Nc2ncnc3cccnc23)C(F)(F)F)c1 [Seletalisib, seletalisib] for me?
Marked response: 22.1

---

# assay.details: Study-1 Part-A single ascending dose pharmacokinetics (plasma and urine)
# Type: in vivo, human
# recorded.conditions: human, plasma, oral, 5 mg, Study-1 Part-A, single dose 5 mg fed; geo mean (GeoCV%); read-out: Vz/F
quantity: Vd/F (L)
The figure you give is taken to be in L; do not add the unit.

Exam item: Can you look up the measured Vd/F of [O-][n+]1cccc(-c2nc3c(Cl)cccc3cc2[C@@H](Nc2ncnc3cccnc23)C(F)(F)F)c1 [Seletalisib, seletalisib] for me?
Marked response: 47.6

---

# assay.details: Study-1 Part-B multiple ascending dose pharmacokinetics (plasma and urine)
# Format: in vivo, human
# recorded.conditions: human, plasma, oral, 15 mg, Study-1 Part-B, 15 mg, Day 14; geo mean (GeoCV%); read-out: AUC(0–24)
quantity: AUC(0-t) (ng·h/mL)
The figure you give is taken to be in ng·h/mL; do not add the unit.

Exam item: Can you look up the measured AUC(0-t) of [O-][n+]1cccc(-c2nc3c(Cl)cccc3cc2[C@@H](Nc2ncnc3cccnc23)C(F)(F)F)c1 [Seletalisib, seletalisib] for me?
Marked response: 5460

---

# assay.details: Study-1 Part-A single ascending dose pharmacokinetics (plasma and urine)
# Format: in vivo, human
# recorded.conditions: human, plasma, oral, 5 mg, Study-1 Part-A, single dose 5 mg fed; geo mean (GeoCV%)
quantity: AUC (ng·h/mL)
The figure you give is taken to be in ng·h/mL; do not add the unit.

Exam item: Can you look up the measured AUC of [O-][n+]1cccc(-c2nc3c(Cl)cccc3cc2[C@@H](Nc2ncnc3cccnc23)C(F)(F)F)c1 for me?
Marked response: 2680

---

# assay.details: Study-2 single-dose pharmacokinetics (plasma)
# Assay type: in vivo, human
# recorded.conditions: human, plasma, oral; Study-2 single dose, 45 mg QD cohort; geo mean (GeoCV%); read-out: Vz/F
quantity: Vd/F
Include the unit after the number when you answer.

Exam item: Can you look up the measured Vd/F of [O-][n+]1cccc(-c2nc3c(Cl)cccc3cc2[C@@H](Nc2ncnc3cccnc23)C(F)(F)F)c1 for me?
Marked response: 84.2 L

---

# assay.details: Study-1 Part-B multiple ascending dose pharmacokinetics (plasma and urine)
# Type: in vivo, human
# recorded.conditions: human, plasma, oral; Study-1 Part-B, 15 mg, Day 14; geo mean (GeoCV%)
# Protocol: These were phase I, randomised, double-blind, placebo-controlled studies designed to evaluate the safety, tolerability, PK and PD profiles of seletalisib following oral administration of single ascending doses and multiple ascending doses. […] Plasma concentrations of seletalisib were measured by high-performance liquid chromatography with tandem mass spectrometry (see Online Resource S1 for further details). […]
quantity: half-life (h)
The figure you give is taken to be in h; do not add the unit.

Exam item: Can you look up the measured half-life of [O-][n+]1cccc(-c2nc3c(Cl)cccc3cc2[C@@H](Nc2ncnc3cccnc23)C(F)(F)F)c1 for me?
Marked response: 22.5

Values from paper PMC5384962
